- assay.overview: Inhibition of Flaveria bidentis beta-carbonic anhydrase-1 preincubated for 15 mins by stopped flow CO2 hydration assay
pKi: −log10 of the molar value.

molecule: O=C([O-])O.[Na+] [SODIUM BICARBONATE]
pKi: 3.18

molecule: S=C(S)S [SODIUM CARBONOTRITHIOATE]
pKi: 4.22

molecule: CCN(CC)C(=S)S [DITIOCARB SODIUM]
pKi: 5.10

molecule: OB(O)c1ccccc1
pKi: 5.10

molecule: O=BOB(O)OB(O)OB=O [SODIUM TETRABORATE]
pKi: 3.07

molecule: [Br-].[Na+] [SODIUM BROMIDE]
pKi: 3.17

---

- assay.overview: Inhibition of Helicobacter pylori beta-carbonic anhydrase preincubated for 15 mins by stopped flow CO2 hydration assay
pKi: −log10 of the molar value.

molecule: O=S(=O)(O)ONOS(=O)(=O)O [SODIUM IMINODISULFATE]
pKi: 3.15

molecule: O=BOB(O)OB(O)OB=O [SODIUM TETRABORATE]
pKi: 3.17

molecule: N=C=S [SODIUM ISOTHIOCYANATE]
pKi: 3.17
